The measured values listed here are drawn from PubChem BioAssay (NCI).

# Test system: HCC-2998 colon
# Protocol details: NCI tumour cell line growth inhibition, 48 h
# TGI values compiled below
Numbers only; they are read as µM.

| Smiles entry | Result unit | TGI |
| --- | --- | --- |
| C[C@H]1[C@H]2[C@H]3CC[C@@H]4[C@@]5(C)C/C(=C/c6cccnc6)C(=O)C(C)(C)[C@@H]5CC[C@@]4(C)[C@]3(C)CC[C@]23CO[C@]1(C)[C@@H](C(=O)/C=C\c1cccnc1)C3 | µM | 1.67 |

Next up:
Problem: Requested read-out: TGI. Entry: `C/C(=N\NC(=S)N(C)CCN(C)C(=S)N/N=C(\C)c1ccccn1)c1ccccn1`
Result: 38
